Below, each entry is listed alongside its reported MFI.
target: T1, human guanylyl cyclase C (GCC) (human, UniProt P25092 24-1073); experiment: flow cytometry, 293 GCC #2 cells, 1 µg/ml
T1 construct: also called hGCC; STAR
T1 sequence (P25092 24-1073 limits assumed): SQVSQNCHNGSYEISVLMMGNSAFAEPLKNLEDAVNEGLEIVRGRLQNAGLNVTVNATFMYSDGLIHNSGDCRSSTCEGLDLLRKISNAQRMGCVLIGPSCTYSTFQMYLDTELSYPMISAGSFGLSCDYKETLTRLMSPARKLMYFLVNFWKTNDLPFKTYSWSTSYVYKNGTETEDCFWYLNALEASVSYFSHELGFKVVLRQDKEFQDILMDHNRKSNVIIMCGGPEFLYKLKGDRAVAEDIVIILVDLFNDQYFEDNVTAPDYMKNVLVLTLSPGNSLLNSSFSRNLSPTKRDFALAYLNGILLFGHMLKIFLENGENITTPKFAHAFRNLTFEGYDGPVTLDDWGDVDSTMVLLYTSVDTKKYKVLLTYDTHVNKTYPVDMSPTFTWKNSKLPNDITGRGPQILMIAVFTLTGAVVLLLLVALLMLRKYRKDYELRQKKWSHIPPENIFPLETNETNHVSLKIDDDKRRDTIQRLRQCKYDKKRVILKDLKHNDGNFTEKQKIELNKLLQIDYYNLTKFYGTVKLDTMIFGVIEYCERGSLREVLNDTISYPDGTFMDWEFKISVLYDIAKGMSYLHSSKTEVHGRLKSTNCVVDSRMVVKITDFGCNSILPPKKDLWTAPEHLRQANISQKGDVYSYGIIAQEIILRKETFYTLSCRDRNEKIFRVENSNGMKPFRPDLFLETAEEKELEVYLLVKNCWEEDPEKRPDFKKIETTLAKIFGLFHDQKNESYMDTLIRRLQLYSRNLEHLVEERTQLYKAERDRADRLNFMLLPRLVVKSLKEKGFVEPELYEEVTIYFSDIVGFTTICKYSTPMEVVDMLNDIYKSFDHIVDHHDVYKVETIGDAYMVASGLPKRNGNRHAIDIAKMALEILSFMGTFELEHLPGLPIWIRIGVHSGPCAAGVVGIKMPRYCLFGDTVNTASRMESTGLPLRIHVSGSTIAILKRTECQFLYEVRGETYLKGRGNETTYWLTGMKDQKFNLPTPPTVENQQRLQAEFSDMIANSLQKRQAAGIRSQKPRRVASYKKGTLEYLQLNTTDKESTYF

// Input: 5F9-vc-MMAF (antibody, V domains shown, mc-vc-MMAF linked to cysteines freed by partial reduction of interchain disulfides (outside this variable domain); average drug loading about four) VH: QVQLQQWGAGLLKPSETLSLTCAVFGGSFSGYYWSWIRQPPGKGLEWIGEINHRGNTNDNPSLKSRVTISVDTSKNQFALKLSSVTAADTAVYYCARERGYTYGNFDHWGQGTLVTVSS VL: EIVMTQSPATLSVSPGERATLSCRASQSVSRNLAWYQQKPGQAPRLLIYGASTRATGIPARFSGSGSGTEFTLTIGSLQSEDFAVYYCQQYKTWPRTFGQGTNVEIK . Output its MFI only. 7780

// Input: anti-GCC human monoclonal antibody 5F9 (antibody, V domains shown, also called mAb 5F9; MAb 5F9 (Prep A)) VH: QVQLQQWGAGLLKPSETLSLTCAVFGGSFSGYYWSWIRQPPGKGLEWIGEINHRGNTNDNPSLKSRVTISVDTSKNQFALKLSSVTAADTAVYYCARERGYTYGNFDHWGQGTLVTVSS VL: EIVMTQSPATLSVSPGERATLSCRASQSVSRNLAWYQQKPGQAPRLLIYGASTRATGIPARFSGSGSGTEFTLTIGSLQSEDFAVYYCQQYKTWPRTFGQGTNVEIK . Output its MFI only. 8030

// Input: 5F9-mc-MMAF (antibody, V domains shown, mc-MMAF (non-cleavable linker) linked to cysteines freed by partial reduction of interchain disulfides (outside this variable domain); average drug loading about four) VH: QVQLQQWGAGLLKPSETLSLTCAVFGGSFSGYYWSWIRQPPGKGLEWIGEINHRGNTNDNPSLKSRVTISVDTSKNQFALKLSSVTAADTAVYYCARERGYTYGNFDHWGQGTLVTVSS VL: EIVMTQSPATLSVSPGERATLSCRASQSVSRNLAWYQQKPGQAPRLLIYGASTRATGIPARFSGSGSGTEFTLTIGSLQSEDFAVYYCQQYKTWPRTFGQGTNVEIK . Output its MFI only. 7580
